- Test system: 361931-004-R-J1-PDC multicell spheroid viability
- assay.details: Anticancer human tumor 361931-004-R-J1-PDC patient-derived colon adenocarcinoma cell line growth inhibition [PI3K]
- details: curve of compound
property: IC50

Query: Quick one: IC50 for CCCS(=O)(=O)Nc1ccc(F)c(C(=O)c2c[nH]c3ncc(-c4ccc(Cl)cc4)cc23)c1F ?
Reply: 5.1 µM [middle of 4 runs]

Query: Ok, now CNC(=O)c1ccc(N2C(=S)N(c3ccc(C#N)c(C(F)(F)F)c3)C(=O)C2(C)C)cc1F
Reply: > 10 µM

Query: Ok, now CC(C)n1nc(-c2ccc3oc(N)nc3c2)c2c(N)ncnc21
Reply: > 0.1 µM

Query: Ok, now CC1(C)CCC(Nc2ncc(C(F)(F)F)c(-c3c[nH]c4c(P(C)(C)=O)c(C#N)ccc34)n2)CN1 (stereo not given)
Reply: 5.63 µM [middle of 4 runs]

Query: Ok, now C=CC(=O)N1CCN(c2nc(=O)n(-c3c(C)ccnc3C(C)C)c3nc(-c4c(O)cccc4F)c(F)cc23)C(C)C1 (stereo not given)
Reply: > 10 µM

###

- System: 361931-004-R-J1-PDC multicell spheroid viability
- assay.details: Anticancer human tumor 361931-004-R-J1-PDC cell line growth inhibition [PI3K]; active means viability on the fitted dose curve at most 10% of control; inactive means the rest;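 also: spheroids exposed to agents for seven days before readout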
- details: second compound 1 µM; first compound 10 µM
Result category, one only: true (1) (active), false (0) (inactive)

Query: Hey, what did the test say about CC(Cn1ccc(-c2ccc(C#N)c(Cl)c2)n1)NC(=O)c1cc(C(C)O)[nH]n1 (stereo unspecified) + Cc1nc(NC(=O)N2CCCC2C(N)=O)sc1-c1ccnc(C(C)(C)C(F)(F)F)c1 ?
Reply: false (0)

Query: Ok, now Cn1ncc(Cl)c1-c1cc(C(=O)NC(CN)Cc2cccc(F)c2)sc1Cl (stereo unspecified) + COc1c(OCCCN2CCOCC2)ccc2c3n(c(=NC(=O)c4cnc(N)nc4)nc12)CCN3
Reply: false (0)

Query: Ok, now CCCS(=O)(=O)Nc1ccc(F)c(C(=O)c2c[nH]c3ncc(-c4ccc(Cl)cc4)cc23)c1F + Cc1nc(NC(=O)N2CCCC2C(N)=O)sc1-c1ccnc(C(C)(C)C(F)(F)F)c1
Reply: true (1)

Query: Ok, now CC(C)NCC(C(=O)N1CCN(c2ncnc3c2C(C)CC3O)CC1)c1ccc(Cl)cc1 (stereo unspecified) + COc1c(OCCCN2CCOCC2)ccc2c3n(c(=NC(=O)c4cnc(N)nc4)nc12)CCN3
Reply: false (0)

Query: Ok, now CC1(C)CCC(Nc2ncc(C(F)(F)F)c(-c3c[nH]c4c(P(C)(C)=O)c(C#N)ccc34)n2)CN1 (stereo unspecified) + Cc1nc(NC(=O)N2CCCC2C(N)=O)sc1-c1ccnc(C(C)(C)C(F)(F)F)c1
Reply: true (1)

Query: Ok, now Cn1ncc(Cl)c1-c1cc(C(=O)NC(CN)Cc2cccc(F)c2)sc1Cl (stereo unspecified) + CC(Nc1ncnc2nc[nH]c12)c1cc2cccc(Cl)c2c(=O)n1-c1ccccc1
Reply: false (0)

###

Record form. Attribute: IC50. Fill in for each entry.
- Test system: 361931-004-R-J1-PDC multicell spheroid viability
- assay.details: Anticancer human tumor 361931-004-R-J1-PDC cell line growth inhibition [PI3K];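 also: spheroids exposed to agents for seven days before readout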
- details: curve of first compound; second compound 0.0316 µM
Record the value in µM, omitting the unit from your answer.

Query: Quick one: IC50 for Cn1cnc2c(F)c(Nc3ccc(Br)cc3Cl)c(C(=O)NOCCO)cc21 + COc1c(OCCCN2CCOCC2)ccc2c3n(c(=NC(=O)c4cnc(N)nc4)nc12)CCN3 ?
Reply: 0.718

Query: Ok, now CC1(C)CCC(Nc2ncc(C(F)(F)F)c(-c3c[nH]c4c(P(C)(C)=O)c(C#N)ccc34)n2)CN1 (stereo unspecified) + CC(Nc1ccc2c(c1)OCCn1cc(N3C(=O)OCC3C(F)F)nc1-2)C(N)=O
Reply: 3.95

Query: Ok, now CC1(C)CCC(CN2CCN(c3ccc(C(=O)NS(=O)(=O)c4ccc(NCC5CCOCC5)c([N+](=O)[O-])c4)c(Oc4cnc5[nH]ccc5c4)c3)CC2)=C(c2ccc(Cl)cc2)C1 + COc1c(OCCCN2CCOCC2)ccc2c3n(c(=NC(=O)c4cnc(N)nc4)nc12)CCN3
Reply: 4.87

Query: Ok, now Cn1cnc2c(F)c(Nc3ccc(Br)cc3Cl)c(C(=O)NOCCO)cc21 + CC(Nc1ccc2c(c1)OCCn1cc(N3C(=O)OCC3C(F)F)nc1-2)C(N)=O
Reply: 2.11

Query: Ok, now CC(C)NCC(C(=O)N1CCN(c2ncnc3c2C(C)CC3O)CC1)c1ccc(Cl)cc1 (stereo unspecified) + Cc1nc(NC(=O)N2CCCC2C(N)=O)sc1-c1ccnc(C(C)(C)C(F)(F)F)c1
Reply: 1.38

###

- Tested on: 361931-004-R-J1-PDC multicell spheroid viability
- assay.details: Anticancer human tumor 361931-004-R-J1-PDC cell line growth inhibition [PI3K];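 also: spheroids exposed to agents for seven days before readout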
- details: second compound 0.00316 µM; first compound 1 µM; stronger effect = lower value
property: viability, T/C

Query: Observed viability, T/C on 361931-004-R-J1-PDC multicell spheroid viability for CNC(=O)c1ccc(N2C(=S)N(c3ccc(C#N)c(C(F)(F)F)c3)C(=O)C2(C)C)cc1F + COc1c(OCCCN2CCOCC2)ccc2c3n(c(=NC(=O)c4cnc(N)nc4)nc12)CCN3 , please.
Reply: 103%

Query: Ok, now CC(C)NCC(C(=O)N1CCN(c2ncnc3c2C(C)CC3O)CC1)c1ccc(Cl)cc1 (stereo not drawn) + COc1c(OCCCN2CCOCC2)ccc2c3n(c(=NC(=O)c4cnc(N)nc4)nc12)CCN3
Reply: 86.9%

Query: Ok, now C#Cc1c(F)ccc2cc(O)cc(-c3ncc4c(N5CC6CCC(C5)N6)nc(OCC56CCCN5CC(F)C6)nc4c3F)c12 (stereo not drawn) + COc1c(OCCCN2CCOCC2)ccc2c3n(c(=NC(=O)c4cnc(N)nc4)nc12)CCN3
Reply: 91.9%

Query: Ok, now C=CC(=O)N1CCN(c2nc(=O)n(-c3c(C)ccnc3C(C)C)c3nc(-c4c(O)cccc4F)c(F)cc23)C(C)C1 (stereo not drawn) + COc1c(OCCCN2CCOCC2)ccc2c3n(c(=NC(=O)c4cnc(N)nc4)nc12)CCN3
Reply: 98.7%

Query: Ok, now CNC(=O)c1ccc(N2C(=S)N(c3ccc(C#N)c(C(F)(F)F)c3)C(=O)C2(C)C)cc1F + CC(Nc1ccc2c(c1)OCCn1cc(N3C(=O)OCC3C(F)F)nc1-2)C(N)=O
Reply: 92.8%

Query: Ok, now C[C@@H](NC(=O)c1ncnc(N)c1Cl)c1ncc(C(=O)Nc2cc(C(F)(F)F)c(Cl)cn2)s1 + COc1c(OCCCN2CCOCC2)ccc2c3n(c(=NC(=O)c4cnc(N)nc4)nc12)CCN3
Reply: 102%

Query: Ok, now Cn1ncc(Cl)c1-c1cc(C(=O)NC(CN)Cc2cccc(F)c2)sc1Cl (stereo not drawn) + COc1c(OCCCN2CCOCC2)ccc2c3n(c(=NC(=O)c4cnc(N)nc4)nc12)CCN3
Reply: 80.6%

Query: Ok, now CCCS(=O)(=O)Nc1ccc(F)c(C(=O)c2c[nH]c3ncc(-c4ccc(Cl)cc4)cc23)c1F + CC(Nc1ccc2c(c1)OCCn1cc(N3C(=O)OCC3C(F)F)nc1-2)C(N)=O
Reply: 82.8%

###

- Tested on: 361931-004-R-J1-PDC multicell spheroid viability
- assay.details: Anticancer human tumor 361931-004-R-J1-PDC cell line growth inhibition [PI3K];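 also: spheroids exposed to agents for seven days before readout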
- details: second compound 0.316 µM; first compound 0.1 µM; stronger effect = lower value
Lab note: anything with viability, T/C below 50% is marked true (1); values at 50% or higher are marked false (0).

Query: Does the reported viability, T/C of Cn1ncnc1[C@H]1c2n[nH]c(=O)c3cc(F)cc(c23)N[C@@H]1c1ccc(F)cc1 + CC(Nc1ccc2c(c1)OCCn1cc(N3C(=O)OCC3C(F)F)nc1-2)C(N)=O stay below 50%?
Reply: false (0)

Query: Ok, now Cn1ncc(Cl)c1-c1cc(C(=O)NC(CN)Cc2cccc(F)c2)sc1Cl (stereo not given) + COc1c(OCCCN2CCOCC2)ccc2c3n(c(=NC(=O)c4cnc(N)nc4)nc12)CCN3
Reply: true (1)

Query: Ok, now CC(Cn1ccc(-c2ccc(C#N)c(Cl)c2)n1)NC(=O)c1cc(C(C)O)[nH]n1 (stereo not given) + Cc1nc(NC(=O)N2CCCC2C(N)=O)sc1-c1ccnc(C(C)(C)C(F)(F)F)c1
Reply: false (0)

Query: Ok, now CCN1CCN(Cc2ccc(Nc3ncc(F)c(-c4cc(F)c5nc(C)n(C(C)C)c5c4)n3)nc2)CC1 + CC(Nc1ccc2c(c1)OCCn1cc(N3C(=O)OCC3C(F)F)nc1-2)C(N)=O
Reply: false (0)

Query: Ok, now C#Cc1c(F)ccc2cc(O)cc(-c3ncc4c(N5CC6CCC(C5)N6)nc(OCC56CCCN5CC(F)C6)nc4c3F)c12 (stereo not given) + COc1c(OCCCN2CCOCC2)ccc2c3n(c(=NC(=O)c4cnc(N)nc4)nc12)CCN3
Reply: false (0)

Reference source: PubChem BioAssay AID1963979
